Cited source: ChEMBL document CHEMBL1144270

molecular target: Carbonic anhydrase 5A, mitochondrial (Homo sapiens, UniProt P35218)
Sequence (P35218 whole entry): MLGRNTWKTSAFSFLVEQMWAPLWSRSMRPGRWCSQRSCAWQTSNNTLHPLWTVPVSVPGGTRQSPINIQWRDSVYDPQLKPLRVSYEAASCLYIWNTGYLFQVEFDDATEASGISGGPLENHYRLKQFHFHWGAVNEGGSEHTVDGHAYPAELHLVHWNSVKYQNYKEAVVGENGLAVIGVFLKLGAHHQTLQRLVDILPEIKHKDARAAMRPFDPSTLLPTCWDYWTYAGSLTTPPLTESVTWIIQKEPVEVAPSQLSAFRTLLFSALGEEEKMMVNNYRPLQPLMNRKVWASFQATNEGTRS
Note to self: use y only for Ki readings below 10 mM; a reading exactly at 10 mM still gets n.

Does the reported Ki of the following compound sit strictly below 10 mM? O=C(O)c1c(F)c(F)cc(F)c1F y

Is Ki of O=C([O-])O.[Na+] [SODIUM BICARBONATE] strictly below 10 mM? n

Is it true that Ki reported for CC(O)C(=O)[O-].[Na+] (stereo not given) [SODIUM LACTATE] is less than 10 mM? y

Please check: Ki for O=C([O-])C(=O)[O-].[Na+].[Na+] [SODIUM OXALATE] , strictly under 10 mM or not? y

====

molecular target: Carbonic anhydrase 4 (Homo sapiens, UniProt P22748); test: Binding affinity against human cytosolic Carbonic anhydrase IV
Sequence (P22748 whole entry): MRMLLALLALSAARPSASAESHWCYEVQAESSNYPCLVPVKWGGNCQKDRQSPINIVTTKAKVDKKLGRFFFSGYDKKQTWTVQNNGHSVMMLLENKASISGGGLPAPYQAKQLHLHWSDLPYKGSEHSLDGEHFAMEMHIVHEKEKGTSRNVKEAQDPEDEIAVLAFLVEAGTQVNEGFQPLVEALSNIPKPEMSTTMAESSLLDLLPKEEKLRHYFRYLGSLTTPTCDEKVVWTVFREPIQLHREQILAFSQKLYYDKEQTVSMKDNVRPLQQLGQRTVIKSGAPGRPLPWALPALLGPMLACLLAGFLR
Please respond with reported pKi for every item in the list.
Quick note: pKi means taking -log10 of the concentration in moles per liter.

Dear colleague, I am looking for the recorded pKi of the following molecule: O=C([O-])CC(O)(CC(=O)[O-])C(=O)[O-].[Na+].[Na+].[Na+] [SODIUM CITRATE] 7.00

# get_value(readout='pKi', item= O=C([O-])C(=O)[O-].[Na+].[Na+] [SODIUM OXALATE] ) 7.00

Quick check: pKi of CC(O)C(=O)[O-].[Na+] (configuration not stated) [SODIUM LACTATE] ? 2.82

# query: pKi of entry O=C([O-])c1ccccc1.[Na+] [SODIUM BENZOATE] 4.13

Would you kindly share the measured pKi for CC(=O)[O-].[Na+] [SODIUM ACETATE] ? 3.26

pKi lookup needed for CC(=O)C(=O)[O-].[Na+] [PYRUVATE SODIUM] , thanks. 4.84

Return reported pKi; argument: O=C([O-])CC(=O)[O-].[Na+].[Na+] [DISODIUM MALONATE] 5.55

====

biological target: Carbonic anhydrase 2 (Homo sapiens)
pKi: −log10 of the molar value.
Label Yes for high-side pKi (at or above 3) and No for low-side pKi (below it).

Could you tell me if the measured pKi of O=C([O-])CC(O)(CC(=O)[O-])C(=O)[O-].[Na+].[Na+].[Na+] [SODIUM CITRATE] reaches 3 or more? No

Could you verify whether the entry CC(O)C(=O)[O-].[Na+] (stereo not drawn) [SODIUM LACTATE] shows pKi of no less than 3? No

Quick check, pKi >= 3? O=C(O)c1c(F)c(F)cc(F)c1F Yes

Is it the case that O=C([O-])CC(=O)[O-].[Na+].[Na+] [DISODIUM MALONATE] has pKi reaching or exceeding 3? No

Evaluate CC(=O)C(=O)[O-].[Na+] [PYRUVATE SODIUM] : pKi at minimum 3? No

Dear colleague, could you confirm whether O=C([O-])c1ccccc1.[Na+] [SODIUM BENZOATE] has pKi at or above 3? Yes

Hi, just wondering whether CC(=O)[O-].[Na+] [SODIUM ACETATE] shows pKi of 3 or higher. Yes

====

Give measured pKi for each item. Keep answers brief.
On this scale, pKi is minus log10 of a concentration expressed in M (mol/L).

Query the reported pKi for Carbonic anhydrase 9 (Homo sapiens, UniProt Q16790); item: O=C(O)C[C@H](O)C(=O)O [E350] 2.13

Requested read-out pKi, target or system Carbonic anhydrase 9 (Homo sapiens, UniProt Q16790), entry O=C([O-])C(=O)[O-].[Na+].[Na+] [SODIUM OXALATE] 2.48

Test system Carbonic anhydrase 9 (Homo sapiens, UniProt Q16790); read-out pKi; what value for CC(=O)C(=O)[O-].[Na+] [PYRUVATE SODIUM] ? 2.95

# get_value(readout= pKi, system= Carbonic anhydrase 9 (Homo sapiens, UniProt Q16790)) for O=C([O-])CC(O)(CC(=O)[O-])C(=O)[O-].[Na+].[Na+].[Na+] [SODIUM CITRATE] 2.31

Lookup: pKi / Carbonic anhydrase 9 (Homo sapiens, UniProt Q16790) / O=C([O-])CC(=O)[O-].[Na+].[Na+] [DISODIUM MALONATE] 2.90

====

molecular target: Carbonic anhydrase 5A, mitochondrial (Homo sapiens)
Response field label: string, one of TRUE (Ki strictly below 6 mM) or FALSE.

Find out if reported Ki for O=C([O-])c1ccccc1.[Na+] [SODIUM BENZOATE] is less than 6 mM FALSE

Lab log: compare recorded Ki with 6 mM; is it strictly lower for CC(=O)[O-].[Na+] [SODIUM ACETATE] ? FALSE

Does O=C([O-])CC(O)(CC(=O)[O-])C(=O)[O-].[Na+].[Na+].[Na+] [SODIUM CITRATE] have Ki strictly under 6 mM? TRUE

Strictly below 6 mM: is that where Ki of CC(=O)C(=O)[O-].[Na+] [PYRUVATE SODIUM] sits? TRUE

====

pKi: −log10 of the molar value.
As a worked illustration, we turn to pKi data collected for Carbonic anhydrase 9 (Homo sapiens, UniProt Q16790).

Name the reported pKi value associated with the molecule O=C([O-])c1ccccc1.[Na+] [SODIUM BENZOATE] < 0.82

Item under review: CC(O)C(=O)[O-].[Na+] (stereo not drawn) [SODIUM LACTATE] . Reported pKi? < 0.82

Report pKi for CC(=O)[O-].[Na+] [SODIUM ACETATE] please. < 0.82
